Target: human Arginine Vasopressin Receptor 1b (AVPR1b) (Homo sapiens (Human), UniProt P47901)
Sequence (P47901 whole entry): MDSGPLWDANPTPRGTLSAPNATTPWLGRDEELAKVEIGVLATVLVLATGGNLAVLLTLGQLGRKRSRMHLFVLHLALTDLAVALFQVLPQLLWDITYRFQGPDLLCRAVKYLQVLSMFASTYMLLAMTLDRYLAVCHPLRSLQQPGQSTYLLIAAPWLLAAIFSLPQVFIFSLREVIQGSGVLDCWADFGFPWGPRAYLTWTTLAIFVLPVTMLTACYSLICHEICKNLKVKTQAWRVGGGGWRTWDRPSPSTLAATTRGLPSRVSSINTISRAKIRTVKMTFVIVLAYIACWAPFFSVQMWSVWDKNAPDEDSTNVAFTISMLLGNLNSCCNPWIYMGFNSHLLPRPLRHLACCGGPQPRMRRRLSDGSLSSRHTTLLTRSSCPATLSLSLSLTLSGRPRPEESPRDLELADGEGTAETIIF
Experiment: Vasopressin V1B receptor antagonist assay (AVP-evoked calcium, FLIPR, CHO-AVPR1b cells)
Type: cell-based
pIC50: −log10 of the molar value.
measurement.label: pIC50

Some solved cases for reference:
CCOC(=O)N1Cc2cc(Cl)ccc2-n2c(C3CC4(C3)CN(c3ccc(F)cn3)C4)nnc2C1C (centres unmarked) [compound 169]    < 6.00
CCOC(=O)N1Cc2cc(Cl)ccc2-n2c(C3CC4(C3)CN(c3ncccn3)C4)nnc2C1C (single isomer, unassigned) [Cpd 168A]    < 6.00
CC1c2nnc(C3CC4(C3)CN(c3ncccn3)C4)n2-c2ccc(Cl)cc2CN1C(=O)C1(F)CC1 (centres unmarked) [compound 175]    < 6.00
CC1c2nnc(C3CC4(C3)CN(c3ccc(F)cn3)C4)n2-c2ccc(Cl)cc2CN1C (single isomer, unassigned) [Cpd 179A]    < 6.00

Now take the following molecule into account.
[ask] Consider the molecule CC(C)C(=O)N1Cc2cc(Cl)ccc2-n2c(nnc2C2CC3(C2)CN(c2ccccn2)C3)C1 [compound 71] . State its measured pIC50.
[reply] < 6.00

---

Biological target: human Arginine Vasopressin Receptor 1b (AVPR1b) (Homo sapiens (Human))
Assay: Vasopressin V1B receptor antagonist assay (AVP-evoked calcium, FLIPR, CHO-AVPR1b cells)
Type: cell-based
pIC50: −log10 of the molar value.
# pIC50 per entry

Some solved cases for reference:
CC1c2nnc(C3CC4(C3)CN(c3ncccn3)C4)n2-c2ccc(Cl)cc2CN1C(=O)OC1(C)CC1 (single isomer, unassigned) [Cpd 205A]    < 6.00
CCOC(=O)N1Cc2cc(Cl)ccc2-n2c(C3CC4(C3)CN(c3ccc(F)cn3)C4)nnc2C1C (single isomer, unassigned) [Cpd 169A]    < 6.00

[ask] Consider the compound CC(C)OC(=O)N1Cc2cc(Cl)ccc2-n2c(C3CC4(C3)CN(c3cccc(C#N)n3)C4)nnc2C1C (single isomer, unassigned) [Cpd 204A] . State its measured pIC50.
[reply] < 6.00

[ask] Consider the compound CCN1Cc2cc(Cl)ccc2-n2c(nnc2C2CC3(C2)CN(c2ccccn2)C3)C1 . State its measured pIC50.
[reply] < 6.00

---

System: MDR1-MDCK cells
Assay: MDR1-MDCK effective efflux assay (Transwell, 10 μM, 1 hour), MDR1-MDCK cells
Format: in vitro ADME
Conditions: MDCK-MDR1
Method: The MDR1-MDCK effective efflux assay was performed as described in the BioFocus Standard Operating Procedure, ADME-SOP-56. […] Incubations were performed at 37° C., with samples removed from both donor and acceptor chambers at T=0 and 1 hour and compound analysed by mass spectrometry (LC-MS/MS) including an analytical internal standard. […] Efflux ratios (Papp B>A/Papp A>B) were calculated for each compound from the mean Papp values in each direction for both wild-type and MDR1-MDCK cells. […]
measurement.label: MDR1 EER

CC1c2nnc(C3CC4(C3)CN(c3ncc(F)cn3)C4)n2-c2ccc(Cl)cc2CN1C(=O)OC(CF)CF (stereo not shown)    +
Clc1ccc2c(c1)CN(C1COC1)Cc1nnc(C3CC4(C3)CN(c3ccccn3)C4)n1-2    +
CC(C)OC(=O)N1Cc2cc(Cl)ccc2-n2c(C3CC4(C3)CN(c3ccc(F)cn3)C4)nnc2C1C (stereo not shown)    +++
CCC(=O)N1Cc2cc(Cl)ccc2-n2c(nnc2C2CC3(C2)CN(c2ncccn2)C3)C1    +
